Source listed as PubChem BioAssay AID488910.

PROCEDURE_DETAILS: preservation of ATP in cytokine-treated beta cells – cell-based, ATP luminescence, single point, primary screen (AID 488910)
STATED_CONDITIONS: INS-1E cytokine-induced death, 48 h, at 10 µM, normalised: neutral wells 0, positive control 100
Hit rate of the full screen: of about 20,000 compounds, about 25 (0.1%) were called active.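 The calls were made as follows: active = mean replicate protection from cytokine-induced ATP loss at least 50% and at least 75% of replicates each reaching 50%; inconclusive = meets only one of the two criteria, mean or replicate share; inactive = fails both the mean and replicate share criteria.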 The entries come from a sample that favours actives as a whole.
Please answer using one outcome listed in active, inactive

Consider the worked cases shown below.
INSERT INTO assay_data (input_smiles, assigned_category) VALUES
  ('C[C@@H]1CN([C@H](C)CO)C(=O)c2cc(NC(=O)CCCCCC(=O)Nc3ccccc3N)ccc2O[C@H]1CN(C)C(=O)Nc1ccc(C(F)(F)F)cc1', 'inactive'),
  ('COC(=O)CCCCCCC(=O)N/N=C/c1c(OC)cc(O)cc1OC', 'inactive'),
  ('C[C@H]1CN([C@@H](C)CO)C(=O)c2cccc(NC(=O)Nc3ccc(F)cc3)c2O[C@H]1CN(C)S(=O)(=O)c1cn(C)cn1', 'inactive');

Request: In this assay, the call recorded for CC(C)NC(=O)Nc1cccc2c1O[C@H](CN(C)S(=O)(=O)c1cccs1)[C@@H](C)CN([C@H](C)CO)C2=O was what?
Response: inactive

Request: Any idea what this test logged for COc1cc(/C=N\NC(=O)CCCCCCC(=O)NO)c(Br)cc1O ?
Response: active

---

PROCEDURE_DETAILS: preservation of ATP in cytokine-treated beta cells – cell-based, ATP luminescence, single point, primary screen (AID 488910)
STATED_CONDITIONS: INS-1E cytokine-induced death, 48 h, at 10 µM, hits give high values, normalised: neutral wells 0, positive control 100
The campaign covered roughly 20,000 compounds. About 25 (0.1%) were called active. Only a selection was taken, and actives are over-represented in it overall.
ENDPOINT_LABEL: protection from cytokine-induced ATP loss (%)
One number for each entry, in %.

These recorded examples may help you get a feel for the data.
INSERT INTO measurements (input_smiles, reported_result) VALUES
  ('Cc1noc(C)c1NC(=O)Nc1ccc2c(c1)C(=O)N([C@H](C)CO)C[C@@H](C)[C@@H](CN(C)Cc1ccccc1)O2', 2.87),
  ('C[C@H](CO)N1C[C@H](C)[C@@H](CN(C)Cc2ccc(C(=O)Nc3ccccc3N)cc2)Oc2c(NC(=O)C3CC3)cccc2C1=O', -6.93),
  ('C[C@@H]1CN([C@@H](C)CO)C(=O)c2cccc(NC(=O)Nc3ccc(F)cc3)c2O[C@@H]1CN(C)C(=O)Nc1ccccc1', 7.56),
  ('CC(C)NC(=O)Nc1ccc2c(c1)C(=O)N([C@@H](C)CO)C[C@@H](C)[C@H](CN(C)C(=O)NC1CCCCC1)O2', 4.32),
  ('C[C@@H]1CN([C@H](C)CO)C(=O)c2cccc(NC(=O)c3cnccn3)c2O[C@@H]1CN(C)Cc1ccncc1', 3.26),
  ('C[C@@H]1CN([C@H](C)CO)C(=O)c2cc(NS(C)(=O)=O)ccc2O[C@@H]1CN(C)S(C)(=O)=O', 6.6);

Attention now turns to another entry.
Request: Return protection from cytokine-induced ATP loss (reported value) for this compound: C[C@H](CO)N1C[C@H](C)[C@H](CN(C)C)Oc2ccc(NC(=O)c3ccncc3)cc2CC1=O
Response: 2
